meta.source: patent US8952024B2

# System: giant foxtail (Setaria faberii)
# experiment: Test B pre-/postemergence plant response
# Assay type: in vivo
# assayConditions: 62 g ai/ha, postemergence; 0 is no effect, 100 is complete control; 13 to 15 days
Reported Foxtail, Giant plant response rating (0 to 100 scale) values follow for various compounds

Task item: Look at this compound and give its reported Foxtail, Giant plant response rating (0 to 100 scale). O=C1CCCC(OC(=O)C2CC2)=C1C(=O)c1cnc(-c2ccccc2)n(-c2ccccc2)c1=O
Reply: 95

Task item: Look at this compound and give its reported Foxtail, Giant plant response rating (0 to 100 scale). CCCn1c(-c2cccc(C(F)(F)F)c2)ncc(C(=O)C2=C(O)CCCC2=O)c1=O
Reply: 80

Task item: Look at this compound and give its reported Foxtail, Giant plant response rating (0 to 100 scale). COCCCn1c(-c2cccc(C)c2)ncc(C(=O)C2=C(O)CCCC2=O)c1=O
Reply: 80

Task item: Look at this compound and give its reported Foxtail, Giant plant response rating (0 to 100 scale). CCCCc1ncc(C(=O)C2=C(O)CCCC2=O)c(=O)n1-c1ccc(C)cc1
Reply: 80

====

Reported Plant response rating, Galium values follow for various compounds
# Tested on: galium (catchweed bedstraw, Galium aparine)
# experiment: Test B pre-/postemergence plant response
# Assay type: in vivo
# assayConditions: Preemergence, 125 g ai/ha; scale 0 to 100, 0 no effect, 100 complete control

Cn1c(-c2ccccc2)ncc(C(=O)C2=C(O)CCCC2=O)c1=O
20

Task item: Look at this compound and give its reported Plant response rating, Galium. O=C1CCCC(O)=C1C(=O)c1cnc(-c2cccc(Cl)c2)n(-c2ccc(Cl)cc2)c1=O
Reply: 30

Task item: Look at this compound and give its reported Plant response rating, Galium. COCCn1c(-c2cc(F)cc(F)c2)ncc(C(=O)C2=C(O)CCCC2=O)c1=O
Reply: 90

Task item: Look at this compound and give its reported Plant response rating, Galium. CCCc1ncc(C(=O)C2=C(O)CCCC2=O)c(=O)n1-c1ccccc1C
Reply: 80

Task item: Look at this compound and give its reported Plant response rating, Galium. O=C1CCCC(O)=C1C(=O)c1cnc(-c2ccccc2)n(CC2CCCO2)c1=O (stereo not drawn)
Reply: 95

Task item: Look at this compound and give its reported Plant response rating, Galium. CCCCn1c(-c2cc(F)cc(F)c2)ncc(C(=O)C2=C(O)C3CCC(C3)C2=O)c1=O (stereo not drawn)
Reply: 95

====

Reported Plant response rating: Barley, Spring values follow for various molecules
# Test system: spring barley (Hordeum vulgare)
# experiment: Test C plant response
# Type: in vivo
# assayConditions: Postemergence; 125 g ai/ha; scale 0 to 100
# Description: […] Treated plants and controls were maintained in a controlled growth environment for 14 days after which time all test plants were visually evaluated and compared to controls. […]

Consider the worked cases shown below.
Cc1cc(C)cc(-n2c(-c3ccccc3)ncc(C(=O)C3=C(O)CCCC3=O)c2=O)c1 [Compound 33]
0
Cc1ccccc1-n1c(-c2ccccc2)ncc(C(=O)C2=C(O)CCCC2=O)c1=O [Compound 12]
0
Cc1ccc(-n2c(-c3ccccc3)ncc(C(=O)C3=C(O)CCCC3=O)c2=O)cc1 [Compound 8]
30

Task item: Look at this molecule and give its reported Plant response rating: Barley, Spring. COc1ccc(-n2c(-c3ccccc3)ncc(C(=O)C3=C(O)CCCC3=O)c2=O)cc1 [Compound 4]
Reply: 15

====

Reported Ryegrass, Italian plant response rating values follow for various compounds
# Tested on: Italian ryegrass (Lolium multiflorum)
# experiment: Test B pre-/postemergence plant response
# Assay type: in vivo
# assayConditions: Preemergence, 250 g ai/ha; 0 to 100 scale
I only need the number, thanks.

COCCCn1c(-c2cc(F)cc(F)c2)ncc(C(=O)C2=C(O)CCCC2=O)c1=O [Compound 120]
100
COCCn1c(-c2cc(F)cc(F)c2)ncc(C(=O)C2=C(O)CCCC2=O)c1=O [Compound 119]
100
CCc1ccc(-n2c(-c3ccccc3)ncc(C(=O)C3=C(O)CCCC3=O)c2=O)cc1 [Compound 219]
10

Turning to the following compound.
Task item: Look at this compound and give its reported Ryegrass, Italian plant response rating. CCCc1ncc(C(=O)C2=C(O)CCCC2=O)c(=O)n1CC1CCCO1 (stereo not shown) [Compound 74]
Reply: 0

====

# Test system: Italian ryegrass (Lolium multiflorum)
# experiment: Test B pre-/postemergence plant response
# Type: in vivo
# assayConditions: 31 g ai/ha, postemergence; scale 0 to 100, 0 is no effect, 100 is complete control
Reported Plant response rating, Ryegrass, Italian values follow for various compounds

Consider the worked cases shown below.
CCCCc1ncc(C(=O)C2=C(O)CCCC2=O)c(=O)n1-c1ccc(C)cc1 [Compound 67]
0
CCCc1ncc(C(=O)C2=C(O)CCCC2=O)c(=O)n1CC1CCCO1 (centres unmarked) [Compound 74]
5
O=C1CCCC(OC(=O)C2CC2)=C1C(=O)c1cnc(-c2ccccc2)n(-c2ccccc2)c1=O [Compound 88]
5
CCCn1c(-c2cccs2)ncc(C(=O)C2=C(O)CCCC2=O)c1=O [Compound 77]
0

Task item: Find the measured Plant response rating, Ryegrass, Italian: item O=C1CCCC(O)=C1C(=O)c1cnc(-c2ccccc2Br)n(-c2ccccc2)c1=O [Compound 71] , target or system Italian ryegrass (Lolium multiflorum).
Reply: 0

====

# Tested on: ducksalad (Heteranthera limosa)
# experiment: Test B flooded paddy test
# Type: in vivo
# assayConditions: Flood (flooded paddy test), 31 g ai/ha; scale of 0 to 100 where 0 is no effect and 100 is complete control; 13 to 15 days
Reported Plant response rating, Ducksalad values follow for various compounds
I only need the number, thanks.

Consider the worked cases shown below.
O=C1CCCC(O)=C1C(=O)c1cnc(-c2ccccc2Cl)n(-c2ccccc2)c1=O [Compound 35]
0
Cc1ccccc1-n1c(-c2ccccc2)ncc(C(=O)C2=C(O)CCCC2=O)c1=O [Compound 12]
0
C=CCn1c(-c2ccccc2)ncc(C(=O)C2=C(O)CCCC2=O)c1=O [Compound 23]
20
Cc1cc(-n2c(-c3ccccc3)ncc(C(=O)C3=C(O)CCCC3=O)c2=O)ccc1F [Compound 53]
40

Turning to the following compound.
Task item: Look at this compound and give its reported Plant response rating, Ducksalad. O=C1CCCC(O)=C1C(=O)c1cnc(-c2ccccc2)n(-c2cccc(Br)c2)c1=O [Compound 38]
Reply: 0

====

# System: giant foxtail (Setaria faberii)
# experiment: Test A pre-/postemergence plant response
# Assay type: in vivo
# assayConditions: Preemergence, 500 g ai/ha; 0 to 100 scale, 0 = no effect, 100 = complete control
recordedMetric: Plant response rating, Foxtail, Giant
I only need the number, thanks.

Consider the worked cases shown below.
COc1ccc(-n2c(-c3ccccc3)ncc(C(=O)C3=C(O)CCCC3=O)c2=O)cc1OC [Compound 218]
50
O=C1CCCC(O)=C1C(=O)c1cnc(-c2ccccc2)n(C2CCSCC2)c1=O [Compound 164]
70

Task item: Look at this molecule and give its reported Plant response rating, Foxtail, Giant. Cc1cc(-n2c(-c3cccc(F)c3)ncc(C(=O)C3=C(O)CCCC3=O)c2=O)ccc1F [Compound 191]
Reply: 90

Task item: Look at this molecule and give its reported Plant response rating, Foxtail, Giant. O=C1CCCC(O)=C1C(=O)c1cnc(-c2ccccc2)n(C2CCCCCCCCCCC2)c1=O [Compound 165]
Reply: 0

====

Reported Plant response rating, Foxtail, Green values follow for various compounds
# Tested on: green foxtail (Setaria viridis)
# experiment: Test B pre-/postemergence plant response
# Type: in vivo
# assayConditions: 250 g ai/ha, Preemergence, 0 to 100 scale
# Excerpt: […] Treated plants and controls were maintained in a greenhouse for 13 to 15 days, after which time all treated plants were visually evaluated and compared to controls. […]
I only need the number, thanks.

O=C1CCCC(O)=C1C(=O)c1cnc(-c2ccsc2)n(-c2ccccc2)c1=O
100
Cc1c(Cl)cccc1-n1c(-c2ccccc2)ncc(C(=O)C2=C(O)CCCC2=O)c1=O
100
O=C1CCCC(O)=C1C(=O)c1cnc(-c2ccccc2)n(CC2CCCO2)c1=O (stereo not shown)
98
Cc1cc(-n2c(-c3ccccc3)ncc(C(=O)C3=C(O)CCCC3=O)c2=O)ccc1F
98
Cc1ccccc1-n1c(-c2cccc(Cl)c2)ncc(C(=O)C2=C(O)CCCC2=O)c1=O
85
O=C1CCCC(O)=C1C(=O)c1cnc(-c2ccccc2)n(-c2ccccc2F)c1=O
70

Turning to the following compound.
Task item: Look at this compound and give its reported Plant response rating, Foxtail, Green. CCCCc1ncc(C(=O)C2=C(O)CCCC2=O)c(=O)n1-c1cccc(C)c1
Reply: 30

====

# Tested on: cocklebur (Xanthium strumarium)
# experiment: Test B pre-/postemergence plant response
# Type: in vivo
# assayConditions: 62 g ai/ha, postemergence; 0 is no effect, 100 is complete control; 13 to 15 days
recordedMetric: Cocklebur plant response rating (0 to 100 scale)
I only need the number, thanks.

Task item: Look at this molecule and give its reported Cocklebur plant response rating (0 to 100 scale). CCCc1ncc(C(=O)C2=C(O)CCCC2=O)c(=O)n1CC1CCCO1 (stereo not shown) [Compound 74]
Reply: 85

Task item: Look at this molecule and give its reported Cocklebur plant response rating (0 to 100 scale). COCC(C)n1c(-c2ccccc2)ncc(C(=O)C2=C(O)CCCC2=O)c1=O (stereo not shown) [Compound 107]
Reply: 100

Task item: Look at this molecule and give its reported Cocklebur plant response rating (0 to 100 scale). CCCCCn1c(-c2ccccc2)ncc(C(=O)C2=C(O)CCCC2=O)c1=O [Compound 89]
Reply: 60

Task item: Look at this molecule and give its reported Cocklebur plant response rating (0 to 100 scale). O=C1CCCC(O)=C1C(=O)c1cnc(-c2ccccc2)n(C2CCCC2)c1=O [Compound 131]
Reply: 98

Task item: Look at this molecule and give its reported Cocklebur plant response rating (0 to 100 scale). CCCn1c(-c2cccc(Br)c2)ncc(C(=O)C2=C(O)CCCC2=O)c1=O [Compound 141]
Reply: 65

Task item: Look at this molecule and give its reported Cocklebur plant response rating (0 to 100 scale). COCCCn1c(-c2cccc(Br)c2)ncc(C(=O)C2=C(O)CCCC2=O)c1=O [Compound 140]
Reply: 15

Task item: Look at this molecule and give its reported Cocklebur plant response rating (0 to 100 scale). CCCn1c(-c2cccs2)ncc(C(=O)C2=C(O)CCCC2=O)c1=O [Compound 77]
Reply: 0

Task item: Look at this molecule and give its reported Cocklebur plant response rating (0 to 100 scale). O=C1CCCC(O)=C1C(=O)c1cnc(-c2ccccc2Br)n(-c2ccccc2)c1=O [Compound 71]
Reply: 65

Task item: Look at this molecule and give its reported Cocklebur plant response rating (0 to 100 scale). CCCn1c(-c2cc(F)cc(F)c2)ncc(C(=O)C2=C(O)CCCC2=O)c1=O [Compound 152]
Reply: 80

Task item: Look at this molecule and give its reported Cocklebur plant response rating (0 to 100 scale). CCCCn1c(-c2cccc(Cl)c2)ncc(C(=O)C2=C(O)CCCC2=O)c1=O [Compound 146]
Reply: 25
